Source listed as PubChem BioAssay (NCI).

# Tested on: A498 renal
# method-summary: NCI-60 one-dose screen, 48 h
# experimental-conditions: 10 µM unless noted
About 83,000 compounds went through this panel and 20% of them were active in at least one assay; those are over-represented in the sample as a whole. Calls of active or inactive are those of the source. How the source made its calls: active means growth percent below 10; inactive means the rest.
The reply should name one outcome from active, inactive

{"molecule": "COc1cc2nc(-c3ccc(-c4nn[nH]n4)cc3)[nH]c(=O)c2cc1OC", "class-assignment": "inactive"}
{"molecule": "S=c1[nH]cccc1-c1nnc2n1Nc1nc3ccccc3cc1CS2", "class-assignment": "inactive"}
{"molecule": "O=C(Nc1ccc(Nc2ncccn2)cc1)NC1C=c2ccccc2=CC1 (configuration not stated)", "class-assignment": "inactive"}
{"molecule": "Cc1ccc(-c2c(Br)c(OC(=O)CO[C@@H]3C[C@H](C)CC[C@H]3C(C)C)c(-c3ccc(C)cc3C)c(Br)c2OC(=O)CO[C@H]2C[C@@H](C)CC[C@@H]2C(C)C)c(C)c1", "class-assignment": "inactive"}
{"molecule": "O=C(CN1CCOCC1)Nc1ccc2ncnc(Nc3ccc(Oc4cccc(C(F)(F)F)c4)c(Cl)c3)c2c1", "class-assignment": "inactive"}
{"molecule": "COc1ccc2c(c1)OC13Oc4cc(OC)ccc4C=C1CCCC3=C2", "class-assignment": "inactive"}
{"molecule": "COc1ccc(Nn2c(SCC(=O)Nc3nc(-c4ccc(Cl)cc4)cs3)nc(C)c2C)cc1", "class-assignment": "inactive"}
{"molecule": "COc1ccc(-c2nc(SCCC(C)C)nc(N/N=C(/C)c3ccc(C)cc3)c2C#N)cc1", "class-assignment": "inactive"}

Dear colleague, could you share the recorded outcome for CCOC(=O)c1ccc(Nc2ccnc(SCC(=O)c3ccc(C#N)cc3)n2)cc1 when you have a moment?
inactive

Dear colleague, could you share the recorded outcome for CC[C@H](C)[C@@H]1NC(=O)[C@H](Cc2ccc(O)cc2)N(C)C(=O)[C@H](Cc2ccccc2)NC(=O)CN(C)C(=O)[C@@H]2CCCN2C(=O)[C@@H](Cc2ccccc2)N(C)C(=O)[C@H](CC(C)C)NC1=O when you have a moment?
active

Dear colleague, could you share the recorded outcome for O=c1[nH]nc(-c2ccc(Cl)cc2)cc1Cc1cccc([N+](=O)[O-])c1 when you have a moment?
inactive

Dear colleague, could you share the recorded outcome for O=C1Nc2c(ccc(Cl)c2Cl)/C1=C/c1ccc(O)cc1 when you have a moment?
inactive

Dear colleague, could you share the recorded outcome for COc1ccc2c(c1)c(CC(=O)NCCOCCOCC(=O)Nc1ccc(OC)c(C(N)=O)c1O)c(C)n2C(=O)c1ccc(Cl)cc1 when you have a moment?
inactive

Dear colleague, could you share the recorded outcome for CC[C@@]12C=CCN3CC[C@]4(c5cc(NC(=O)COc6cc(OCC(=O)Nc7cc8c(cc7OC)N(C)[C@H]7[C@@](O)(C(=O)OC)[C@H](OC(C)=O)[C@]9(CC)C=CCN%10CC[C@]87[C@@H]%109)cc7oc(-c8ccccc8)cc(=O)c67)c(OC)cc5N(C)[C@@H]4[C@](O)(C(=O)OC)[C@H]1OC(C)=O)[C@H]32 when you have a moment?
inactive

Dear colleague, could you share the recorded outcome for CN(C)c1ccc(-c2c(C#N)c(N)n3nc(N)c(C#N)c3c2C#N)cc1 when you have a moment?
inactive

Dear colleague, could you share the recorded outcome for O=C1Nc2ccccc2/C1=C\c1cccc(/C=C2/C(=O)Nc3ccccc32)n1 when you have a moment?
active

Dear colleague, could you share the recorded outcome for COc1c(Cl)cc(Cl)c2ccc(C=C3C(=O)N(C)C(=O)N(C)C3=O)nc12 when you have a moment?
inactive

Dear colleague, could you share the recorded outcome for NC(=O)c1cccc(-c2ccccc2N2CCCCC2)c1 when you have a moment?
inactive

----------
# Tested on: NCI-H23 lung
# method-summary: NCI-60 one-dose screen, 48 h (100 = growth as untreated, 0 = no growth, -100 = all killed)
# experimental-conditions: 10 µM unless noted
This is part of a sample that, as a whole, favours compounds with a hit. Of some 83,000 tested, about 20% had one in any assay.
readout-kind: growth (%)
Answers are plain numbers, in %.

Known results for compounds:
{"compound": "COc1ccc(C(=O)c2cc3c(N)c(C(=O)Nc4cccc(OC)c4)sc3nc2C)cc1", "unit-text": "%", "growth": 33.8}
{"compound": "CCNC(=S)NNC(=O)c1cc2ccc1CCc1ccc(cc1)CC2", "unit-text": "%", "growth": 97.7}
{"compound": "COc1ccc(NS(=O)(=O)c2ccc(C)cc2)c([N+](=O)[O-])c1", "unit-text": "%", "growth": 96.6}
{"compound": "CC1(c2ccccc2)NC(=O)N(CC(=O)Nc2cccc(I)c2)C1=O (stereo not given)", "unit-text": "%", "growth": 95.3}

Proceed to the following item.
Give recorded growth. CNC(=O)c1c(NC(=O)c2ccc(C(C)C)cc2)sc2c(CN(C)C)c(O)ccc12
101

----------
I'd be grateful if you could share measured growth for these entries.
# Tested on: OVCAR-3 ovarian
# method-summary: NCI-60 one-dose screen, 48 h (100 = growth as untreated, 0 = no growth, -100 = all killed)
# experimental-conditions: 10 µM unless noted
About 83,000 compounds went through this panel and 20% of them were active in at least one assay; those are over-represented in the sample as a whole.
Answers are plain numbers, in %.

{"molecule": "O=C(Nc1ccc2cc3ccc(NC(=O)N4CCCCCC4)cc3nc2c1)N1CCCCCC1", "growth, %": -69.2}

Each molecule below has a recorded value; state its growth.
1. CC(C)(C)CC(C)(C)Nc1c(-c2ccc(C(F)(F)F)cc2)nc2cnccn12
2. C/C(=C(/c1ccccc1)c1ccc(OCC(O)CNCCN2CCOCC2)cc1)c1ccccc1 (centres undefined)
3. CCCN=C(N)c1ccc(NC(=O)c2ccc(C(=O)Nc3ccc(C(N)=NCCC)cc3)cc2)cc1
4. COc1cc(NCC(O)CN(CC(C)C)C2CCCC2)c2ncccc2c1 (centres undefined)
5. C(=C\c1n(Cc2ccc3ccccc3c2)c(-c2ccccc2)c(-c2ccccc2)[n+]1Cc1ccc2ccccc2c1)/c1ccccc1
6. COc1ccc(/C=C2\COc3ccc(-c4ccccc4)cc3C2=O)cc1O
7. O=C(CNCCO)Nc1ccc2ncnc(Nc3ccc(OCc4cccc(F)c4)c(Cl)c3)c2c1

1. 84.8
2. 77.9
3. 102
4. 63.7
5. -90.3
6. 2.7
7. 72.7

Give recorded growth. O=C(Nc1cccc(Cl)c1)Oc1c(Br)c(Br)c(Br)c(Br)c1Br
88.5

----------
# Test system: T-47D breast
# method-summary: NCI-60 one-dose screen, 48 h (100 = growth as untreated, 0 = no growth, -100 = all killed)
# experimental-conditions: 10 µM unless noted
This is part of a sample that, as a whole, favours compounds with a hit. Of some 83,000 tested, about 20% had one in any assay.
I'd be grateful if you could share measured growth for these entries.
One number for each entry, in %.

Known results for compounds:
{"compound": "COc1cc2nc(Cc3ccc(C)cc3)[nH]c(=O)c2cc1OC", "growth / %": 107}
{"compound": "CCNC(=S)NNC(=O)c1cc2ccc1CCc1ccc(cc1)CC2", "growth / %": 95.8}
{"compound": "CCCOc1nc(SCCC)nc2c1cnn2-c1ccccc1", "growth / %": 115}

Each compound below has a recorded value; state its growth.
1. O=C(OC(OC(=O)c1cc(Cl)cc(Cl)c1)c1cccc2ccccc12)c1ccccc1 (stereo unspecified)
2. COc1ccc(C(=O)/C=C/c2ccc(OCc3ccccc3)c(OC)c2)cc1OC
3. CC(=O)Nc1ccc(C(=O)Nc2cc(-c3ccccc3)ccc2N)cc1

98.8
47.4
66

----------
# Tested on: HOP-92 NSCLC
# method-summary: NCI-60 one-dose screen, 48 h (100 = growth as untreated, 0 = no growth, -100 = all killed)
# experimental-conditions: 10 µM unless noted
The panel holds about 83,000 compounds, 20% with a hit somewhere; the sample as a whole holds those more often.
So basically, the class depends on measured growth, and the ranges are low range = under 50%, mid range = from 50% up to 70%, high range = 70% and over

{"molecule": "CC(C)(C)OC(=O)N1CCN(c2ccc(N)cc2)C(=O)C1", "tested-target": "HOP-92 NSCLC", "class-assignment": "high range"}

Hi there! Could you help me figure out the category for COc1cc(/C=N/NC(=O)c2ccccc2Nc2cccc(C(F)(F)F)c2)ccc1O please?
mid range

Hi there! Could you help me figure out the category for O=S(=O)(c1cccc(NC2=Nc3cccc4cccc2c34)c1)N1CCCC1 please?
low range

Hi there! Could you help me figure out the category for CC(C)Sc1nc(NN)c(C#N)c(-c2ccccc2)n1 please?
high range

Hi there! Could you help me figure out the category for CN1CCN(C(=O)OCc2nc3c(N4CCOCC4)nc(-c4ccccc4)nc3n2C)CC1 please?
low range

Hi there! Could you help me figure out the category for O=C1Nc2c(ccc(Cl)c2Cl)/C1=C/c1ccc(F)cc1 please?
low range

Hi there! Could you help me figure out the category for CC(=O)N1N=C(c2cccc(Nc3ccncc3)c2)CC1c1ccccc1 (centres undefined) please?
mid range
